As shown below, each of these compounds has a reported IC50 value.
# system name: UniProt O14684
# Sequence (O14684 whole entry): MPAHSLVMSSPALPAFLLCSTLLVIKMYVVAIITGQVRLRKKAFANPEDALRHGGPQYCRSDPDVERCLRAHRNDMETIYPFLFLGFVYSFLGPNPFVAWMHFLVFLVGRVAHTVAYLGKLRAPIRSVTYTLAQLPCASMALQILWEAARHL
# method: Inhibition of mPGES1 isolated from human A549 cells after 15 mis by RP HPLC analysis

Sample answers from the record:
Requested read-out: IC50. Entry: "N#Cc1ccc(-n2cc(COc3ccc([N+](=O)[O-])cc3C(F)(F)F)nn2)cc1C(F)(F)F" > 30 µM

Value lookup for IC50; key = "N#Cc1ccc(-n2cc(COc3cccc(C(F)(F)F)c3)nn2)cc1C(F)(F)F" > 30 µM

Name the recorded IC50 for "O=[N+]([O-])c1ccc(OCc2cn(-c3cccc(C(F)(F)F)c3)nn2)c(C(F)(F)F)c1" . > 30 µM

Entry under review: "N#Cc1ccc(-n2cc(COc3ccc(C(F)(F)F)cc3)nn2)cc1C(F)(F)F" . Reported IC50? > 30 µM

Next item in the queue.
Returns the measured IC50 for the input compound. Input: "N#Cc1ccc(-n2nnc(COc3ccc([N+](=O)[O-])cc3C(F)(F)F)c2I)cc1C(F)(F)F" 0.7 µM
